- Tested on: MDA-MB-468
- procedure.summary: phospho-S6 immunofluorescence (DAPI-normalised), per-plate z-score; higher = higher phospho-S6 signal (less pathway suppression)
- test.context: co-treatment: GDC0941 450 nM; 24 h
Where a name gives a salt, the structure may show the parent alone.
experimental.readout: phospho-S6 immunofluorescence (z-score)
Numbers only.

Please review the following examples before continuing.
| compound | experimental.result |
| --- | --- |
| CN1CCC2=C(C1)c1ccccc1Cc1ccccc12 [Setiptiline] (compound 10 µM) | -0.28 |
| CC[N+](C)(CC)CCOC(=O)C(O)(c1ccccc1)c1ccccc1 [Methylbenactyzium Bromide] (compound 10 µM) | -0.26 |
| COc1ccc2[nH]cc(C3=CCNCC3)c2c1 (compound 10 µM) | -0.19 |
| CO[C@]12C[C@@H](COC(=O)c3cncc(Br)c3)CN(C)[C@@H]1Cc1cn(C)c3cccc2c13 [Nicergoline] (compound 10 µM) | 0.57 |
| CC(C)[C@@H](CN1CC[C@@](C)(c2cccc(O)c2)[C@@H](C)C1)NC(=O)[C@H]1Cc2ccc(O)cc2CN1 [JDTic (dihydrochloride)] (compound 10 µM) | 0.26 |

Provide phospho-S6 immunofluorescence (z-score) for all items below, preserving their order.
1. CNCC(=O)c1ccc(O)c(O)c1 [Adrenalone (hydrochloride)] (compound 10 µM)
2. CCC1(c2cccc(O)c2)CCCCN(C)C1 (stereo not given) [Meptazinol (hydrochloride)] (compound 10 µM)
3. NCCc1cc(O)c(O)cc1O [Oxidopamine (hydrobromide)] (compound 10 µM)

[0.18, 0.48, 0.33]

The reported numbers originate from the supplement of paper PMC7411640.
